B1: Homeobox expressed in ES cells 1, residues 110 to 165; numbered along this chain, Q9UBX0 (parent)
chain: RPRTAFTQNQIEVLENVFRVNCYPGIDIREDLAQKLNLEEDRIQIWFQNRRAKLKR

variants of: B1; test: abundance fitness (aPCA) (normalised: wild type 0, dead -1); higher = more abundant; growth selection in yeast, the domain comes from the species named; settings: Homo sapiens
Below, each of the variants is paired with its reported abundance fitness value.

mutant	abundance fitness
C22D	-0.021
R1T	-0.455
Q8C	-0.183
L14K	-0.519
Q34T	0.046
V20E	-0.1
L32R	-0.886
R29E	-1.23
Q34L	-0.157
N9I	0.118
F18S	-0.819
